Recorded measurements of AC50, one per entry
molecular target: Replicative DNA helicase DnaB (Mycobacterium tuberculosis); test: DnaB intein splicing inhibitors, dose response, biochemical, cell-free fluorescence (AID 449749); assay type: functional
Sequence (P9WMR3 1-399, added parts left off): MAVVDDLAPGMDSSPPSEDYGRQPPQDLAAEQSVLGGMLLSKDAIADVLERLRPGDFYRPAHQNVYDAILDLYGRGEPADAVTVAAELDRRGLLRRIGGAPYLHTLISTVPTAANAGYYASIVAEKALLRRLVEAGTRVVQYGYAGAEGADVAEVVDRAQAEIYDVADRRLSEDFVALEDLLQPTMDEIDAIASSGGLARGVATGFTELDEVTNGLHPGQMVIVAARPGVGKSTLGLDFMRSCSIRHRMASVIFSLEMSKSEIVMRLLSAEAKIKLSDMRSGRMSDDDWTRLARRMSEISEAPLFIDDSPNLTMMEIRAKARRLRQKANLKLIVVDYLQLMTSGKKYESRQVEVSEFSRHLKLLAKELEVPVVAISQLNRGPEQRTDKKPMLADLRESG
Activity calls are given as the source filed them. Rule as the data show it: actives have a measured AC50 and inactives only a lower limit.

- Compound: "COC(=O)CC1=NN(c2nc(C)cc(C)n2)C(=O)C1"
  Tested Target: "Replicative DNA helicase DnaB (Mycobacterium tuberculosis)"
  Result: "103 µM (active)"

# get_value(readout='AC50', item= O=C1c2ccccc2-c2c1nc1c([n+]2[O-])CCCC1 )
21 µM (active)

Record request: AC50 value, item COC(=O)C1CN(C#N)N(c2ccc(Cl)cc2)C12c1ccccc1-c1ccccc12 (stereo not given)
3.16 µM (active)

Fill in: AC50 of O=C(O)c1ccc(NC2=C(n3nnc4ccccc43)C(=O)c3ccccc3C2=O)cc1 is ___
4.36 µM (active)

GET /values?readout=AC50&item= COc1ccc(NC(=O)CSc2c3c(nc4cc(Cl)ccc24)CCCC3)cc1OC
8.17 µM (active)
